Molecular target: T1, cynoNectin4-mFc (cyno, UniProt A0A2K5WES1 32-349)
T1 construct: Immobilized on the SPR chip; also called cyanoNectin4; not shown: mFc (mouse Fc)
T1 sequence: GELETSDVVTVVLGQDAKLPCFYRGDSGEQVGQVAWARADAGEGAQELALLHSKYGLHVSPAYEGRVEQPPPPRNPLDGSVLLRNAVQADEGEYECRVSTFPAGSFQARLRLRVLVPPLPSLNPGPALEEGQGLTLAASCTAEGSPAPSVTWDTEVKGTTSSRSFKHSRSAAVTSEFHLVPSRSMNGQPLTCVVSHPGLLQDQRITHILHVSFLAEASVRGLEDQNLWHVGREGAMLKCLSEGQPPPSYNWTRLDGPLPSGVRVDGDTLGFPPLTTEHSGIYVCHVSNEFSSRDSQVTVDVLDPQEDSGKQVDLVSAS
Test: SPR, cynoNectin4-mFc immobilized, pH 6.5
value.type: pKd
In simple prose, pKd is minus the logarithm base ten of a concentration in moles per litre.

What value of measured pKd is listed for BAP-143-00-03 (antibody, V domains shown, Used as a conjugate with a linker payload (CAB ADC)) VH: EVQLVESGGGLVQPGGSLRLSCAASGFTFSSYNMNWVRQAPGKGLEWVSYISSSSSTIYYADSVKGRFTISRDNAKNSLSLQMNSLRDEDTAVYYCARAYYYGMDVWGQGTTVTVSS VL: DIQMTQSPSSVSASVGDRVTITCRASQGISGWLAWYQQKPGKAPKFLIYAASTLQSGVPSRFSGSGSGTDFTLTISSLQPEDFATYYCQQANSFPDTFGGGTKVEIK ?
8.73

What about this binder? BAP-143-00-01 (antibody, V domains shown, Used as a conjugate with a linker payload (CAB ADC)) VH: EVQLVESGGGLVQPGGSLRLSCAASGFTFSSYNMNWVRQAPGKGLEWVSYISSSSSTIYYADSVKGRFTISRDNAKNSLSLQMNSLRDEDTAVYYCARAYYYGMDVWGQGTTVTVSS VL: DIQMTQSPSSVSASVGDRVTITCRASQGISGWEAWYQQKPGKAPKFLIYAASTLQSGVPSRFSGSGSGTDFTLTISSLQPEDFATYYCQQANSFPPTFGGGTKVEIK
8.53
